# credit: BigSolDB 2.1

Conditions: in ethanol, 308.15 K
MEASURED PROPERTY: solubility (mole fraction)
Please state the value as a number alone, without comment.

Query: What does the record list as solubility (mole fraction) for CC(=O)c1c(C)c([N+](=O)[O-])c(C(C)(C)C)c([N+](=O)[O-])c1C ?
Response: 0.00633

###

Details: in isopropanol, 318.15 K
MEASURED PROPERTY: solubility (mole fraction)
// return a plain number; no unit text

Query: Which solubility (mole fraction) value belongs to CC(=O)c1c(C)c([N+](=O)[O-])c(C(C)(C)C)c([N+](=O)[O-])c1C ?
Response: 0.00933
